target-entity: TYK2 (Homo sapiens, UniProt P29597)
Sequence (P29597 whole entry): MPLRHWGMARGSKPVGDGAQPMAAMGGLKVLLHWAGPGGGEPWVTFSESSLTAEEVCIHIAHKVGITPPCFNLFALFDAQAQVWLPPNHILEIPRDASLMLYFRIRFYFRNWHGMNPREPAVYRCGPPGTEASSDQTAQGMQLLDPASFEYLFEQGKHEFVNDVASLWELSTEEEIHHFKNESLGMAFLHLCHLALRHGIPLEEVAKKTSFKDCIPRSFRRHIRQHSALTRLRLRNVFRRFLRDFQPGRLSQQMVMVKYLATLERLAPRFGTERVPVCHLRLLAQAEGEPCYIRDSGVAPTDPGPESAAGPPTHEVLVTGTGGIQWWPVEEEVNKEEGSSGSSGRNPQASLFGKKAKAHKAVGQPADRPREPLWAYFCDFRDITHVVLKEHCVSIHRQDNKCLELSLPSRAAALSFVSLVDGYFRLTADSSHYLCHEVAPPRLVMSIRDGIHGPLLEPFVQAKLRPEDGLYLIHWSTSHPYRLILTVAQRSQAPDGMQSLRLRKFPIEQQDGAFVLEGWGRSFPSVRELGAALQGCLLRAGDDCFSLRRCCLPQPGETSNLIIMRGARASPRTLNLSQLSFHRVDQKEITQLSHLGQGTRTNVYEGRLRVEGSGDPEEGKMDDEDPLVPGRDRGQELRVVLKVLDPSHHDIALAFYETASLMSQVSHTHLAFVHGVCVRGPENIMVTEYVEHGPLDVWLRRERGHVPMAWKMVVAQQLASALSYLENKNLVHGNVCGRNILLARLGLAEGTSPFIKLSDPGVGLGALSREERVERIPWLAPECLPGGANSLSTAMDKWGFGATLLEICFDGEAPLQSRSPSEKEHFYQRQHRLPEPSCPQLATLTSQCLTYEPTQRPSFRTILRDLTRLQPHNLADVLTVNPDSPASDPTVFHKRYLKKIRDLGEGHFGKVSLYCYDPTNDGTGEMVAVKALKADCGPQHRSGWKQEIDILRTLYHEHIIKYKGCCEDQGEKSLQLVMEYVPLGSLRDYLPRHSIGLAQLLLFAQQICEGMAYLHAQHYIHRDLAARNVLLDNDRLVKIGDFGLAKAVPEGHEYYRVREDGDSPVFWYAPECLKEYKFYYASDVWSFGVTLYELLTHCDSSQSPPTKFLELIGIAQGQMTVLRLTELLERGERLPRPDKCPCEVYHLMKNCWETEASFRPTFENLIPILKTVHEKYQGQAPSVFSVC
assay: TYK2 degradation MSD assay in OCI-LY10 cells
Type: cell-based
Set-up: endogenous in cells; host or cells: EBV-B cells
condition-notes: 4 to 24 hours incubation, read-out: TYK2 MSD DC50 rating in OCI-LY10
Protocol: Example 3. TYK2 Degradation MSD Assay in EBV-B, OCI-LY10, and Human PBMC Cells Degradation of TYK2 in cells was quantitatively measured using Meso Scale Discovery (MSD) technology. […] The assay plates were then incubated at room temperature for 1 hour, washed 3 times with 150 μl/well TBST buffer, and 150 μl/well MSD reading buffer (MSD, R92TC-2) were added. The plates were then analyzed by an MSD reader. […]
measure: DC50

# molecule, measure, recorded-result
rows = [
    ("CNc1cc(N2CCc3c(-c4ccc(CN5CCN(c6ccc(-c7cccc8c(N9CCC(=O)NC9=O)cncc78)cc6)CC5)cn4)cccc32)nn2c(C(=O)N[C@@H]3C[C@@H]3F)cnc12 (racemic) [Example K546]", "DC50", "> 0.1 µM"),
    ("CNc1cc(Nc2cccc(C(=O)NCCCCc3ccc4c(c3)n(C)c(=O)n4C3CCC(=O)NC3=O)c2)nn2c(C(=O)N[C@@H]3C[C@@H]3F)cnc12 (stereo partly shown) [Example K247]", "DC50", "> 0.1 µM"),
    ("CNc1cc(Nc2cccn(-c3ccc(C(=O)N4CCN(CCCOCCc5ccc(-c6ccc7c(c6)n(C)c(=O)n7C6CCC(=O)NC6=O)cc5)CC4)cn3)c2=O)nn2c(C(=O)N[C@@H]3C[C@@H]3F)cnc12 (stereo partly shown) [Example K379]", "DC50", "> 0.1 µM"),
    ("CNc1cc(Nc2cccc(CN3CCC4(CCN(c5ccc(-c6ccc7c(c6)n(C)c(=O)n7C6CCC(=O)NC6=O)cc5)C4)C3)c2)nn2c(C(=O)NC3CC3)cnc12 (stereo not shown) [Example K588]", "DC50", "0.001 to 0.01 µM"),
    ("CNC(=O)c1cnc(Nc2ccc(CN(C)C3CN(c4cccc5c4n(C)c(=O)n5C4CCC(=O)NC4=O)C3)cn2)cc1Nc1cccc(-c2ncc(F)cn2)c1OC (stereo not shown) [Example K154]", "DC50", "< 0.001 µM"),
    ("CNc1cc(Nc2cccc(CN3CCN(c4ccc(-c5ccc6c(c5)n(C)c(=O)n6C5CCC(=O)NC5=O)cc4)CC3)c2OC)nn2c(C(=O)N[C@@H]3C[C@@H]3F)cnc12 (stereo partly shown) [Example K576]", "DC50", "> 0.1 µM"),
    ("CNc1cc(Nc2cccn(-c3cccc(C(=O)NCCCCc4ccc5c(c4)n(C)c(=O)n5C4CCC(=O)NC4=O)c3)c2=O)nn2c(C(=O)N[C@@H]3C[C@@H]3F)cnc12 (stereo partly shown) [Example K219]", "DC50", "> 0.1 µM"),
    ("Cn1c(=O)n(C2CCC(=O)NC2=O)c2ccc(-c3ccc(N4CCN(Cc5ccc(-c6cccc(Nc7ccc8ncc(C(=O)NC9CC9)n8n7)c6)nc5)CC4)cc3)cc21 (stereo not shown) [Example K415]", "DC50", "> 0.1 µM"),
    ("CNC(=O)c1cnc(Nc2ccc(C3CCN(Cc4ccc5c(c4)n(C)c(=O)n5C4CCC(=O)NC4=O)CC3)cn2)cc1Nc1cccc(-c2ncc(F)cn2)c1OC (stereo not shown) [Example K197]", "DC50", "> 0.1 µM"),
    ("Cn1c(=O)n(C2CCC(=O)NC2=O)c2ccc(CCCCNC(=O)c3ccc(-n4cccc(Nc5ccc6ncc(C(=O)N[C@@H]7C[C@@H]7F)n6n5)c4=O)nc3)cc21 (stereo partly shown) [Example K325]", "DC50", "> 0.1 µM"),
]

====

Listed below: DC50 values for each entry.
target-entity: TYK2 (Homo sapiens)
assay: TYK2 degradation MSD assay in EBV-B cells
Format: cell-based
Parameters: endogenous in cells; host or cells: EBV-B cells
condition-notes: 4 to 24 hours incubation, read-out: TYK2 MSD DC50 rating in EBV-B

# molecule, DC50
data = [
    ("CNc1cc(Nc2cccn(-c3ccc(C(=O)N(C)C4CCN(Cc5cccc6c5n(C)c(=O)n6C5CCC(=O)NC5=O)CC4)cn3)c2=O)nn2c(C(=O)N[C@@H]3C[C@@H]3F)cnc12 (stereo partly drawn) [Example K279]", "> 100 nM"),
    ("CNC(=O)c1cnc(Nc2ccc(CN3CCN(c4cccc5c4n(C)c(=O)n5C4CCC(=O)NC4=O)CC3)cn2)cc1Nc1cccc(-c2ncc(F)cn2)c1OC (stereo not drawn) [Example K173]", "< 1 nM"),
    ("CNC(=O)c1cnc(Nc2ccc(CN3CC4(CCN(c5cccc6c5n(C)c(=O)n6C5CCC(=O)NC5=O)CC4)C3)cn2)cc1Nc1cccc(-c2ncc(F)cn2)c1OC (stereo not drawn) [Example K150]", "< 1 nM"),
]

====

target-entity: UniProt P29597
assay: TYK2 degradation MSD assay in OCI-LY10 cells
Assay type: cell-based
Design: endogenous in cells; host or cells: EBV-B cells
condition-notes: 4 to 24 hours incubation, read-out: TYK2 MSD DC50 rating in OCI-LY10
Listed below: DC50 values for each entry.

# molecule, target-entity, DC50
measured = [
    ("CNC(=O)c1cnc(Nc2ccc(CN(C)C3CCN(c4cccc5c4n(C)c(=O)n5C4CCC(=O)NC4=O)CC3)cn2)cc1Nc1cccc(-c2ncc(F)cn2)c1OC (centres unmarked) [Example K704]", "UniProt P29597", "< 1 nM"),
    ("CNC(=O)c1cnc(NC(=O)NCCCCCCCCc2cccc3c2n(C)c(=O)n3C2CCC(=O)NC2=O)cc1Nc1cccc(-c2ncc(F)cn2)c1OC (centres unmarked) [Example K184]", "UniProt P29597", "> 100 nM"),
    ("Cn1c(=O)n(C2CCC(=O)NC2=O)c2cccc(CCCCCCNc3cc(Nc4cccn(-c5ccccn5)c4=O)nn4c(C(=O)N[C@@H]5C[C@@H]5F)cnc34)c21 (some centres unmarked) [Example K206]", "UniProt P29597", "> 100 nM"),
    ("CNC(=O)c1cnc(NC(=O)NCCCCc2cccc3c2n(C)c(=O)n3C2CCC(=O)NC2=O)cc1Nc1cccc(-c2ncc(F)cn2)c1OC (centres unmarked) [Example K105]", "UniProt P29597", "> 100 nM"),
    ("CNc1cc(-c2cnn(C3CCN(C(=O)NCCCCCCCCc4cccc5c4n(C)c(=O)n5C4CCC(=O)NC4=O)CC3)c2)nn2c(C(=O)N[C@@H]3C[C@@H]3F)cnc12 (some centres unmarked) [Example K313]", "UniProt P29597", "> 100 nM"),
    ("CNc1cc(Nc2cccn(-c3cc(C(=O)NCCOCCOCCOCCOCCc4ccc5c(c4)n(C)c(=O)n5C4CCC(=O)NC4=O)ccn3)c2=O)nn2c(C(=O)N[C@@H]3C[C@@H]3F)cnc12 (some centres unmarked) [Example K241]", "UniProt P29597", "> 100 nM"),
    ("CNc1cc(Nc2cccc(CN3CCN(c4ccc(-c5ccc6c(c5)n(C)c(=O)n6C5CCC(=O)NC5=O)cc4)CC3)c2Cl)nn2c(C(=O)N[C@@H]3C[C@@H]3F)cnc12 (some centres unmarked) [Example K564]", "UniProt P29597", "< 1 nM"),
    ("CNc1cc(Nc2cccc(-c3ccc(CN4CCC(C#Cc5cccc6c5n(C)c(=O)n6C5CCC(=O)NC5=O)CC4)cn3)c2)nn2c(C(=O)N[C@@H]3C[C@@H]3F)cnc12 (some centres unmarked) [Example K431]", "UniProt P29597", "1 to 10 nM"),
    ("CNC(=O)c1cnc(Nc2ccc(CN3CC(c4cccc5c4n(C)c(=O)n5C4CCC(=O)NC4=O)C3)cn2)cc1Nc1cccc(-c2ncc(F)cn2)c1OC (centres unmarked) [Example K198]", "UniProt P29597", "> 100 nM"),
    ("CNC(=O)c1cnc(Nc2ccc(CN3CC(N(C)c4cccc5c4n(C)c(=O)n5C4CCC(=O)NC4=O)C3)cn2)cc1Nc1cccc(-c2ncc(F)cn2)c1OC (centres unmarked) [Example K161]", "UniProt P29597", "> 100 nM"),
    ("CNc1cc(N2CCc3c(-c4cc(CN5CCN(c6ccc(-c7ccc8c(c7)n(C)c(=O)n8C7CCC(=O)NC7=O)cc6)CC5)ccn4)cccc32)nn2c(C(=O)N[C@@H]3C[C@@H]3F)cnc12 (some centres unmarked) [Example K658]", "UniProt P29597", "1 to 10 nM"),
]

====

target-entity: TYK2 (Homo sapiens, UniProt P29597)
assay: TYK2 degradation MSD assay in OCI-LY10 cells
Format: cell-based
Parameters: endogenous in cells; host or cells: EBV-B cells
condition-notes: 4 to 24 hours incubation, read-out: TYK2 MSD DC50 rating in OCI-LY10
Listed below: DC50 values for each entry.

# molecule, DC50
records = [
    ("CNc1cc(N2CCc3c(-c4cc(N5CCN([C@H]6CC[C@H](c7ccc8c(c7)n(C)c(=O)n8C7CCC(=O)NC7=O)CC6)CC5)ccn4)cccc32)nn2c(C(=O)NC3CC3F)cnc12 (some centres unmarked)", "< 1 nM"),
    ("CNC(=O)c1cnc(Nc2ccc(CN3CC(c4ccc5c(c4)n(C)c(=O)n5C4CCC(=O)NC4=O)C3)cn2)cc1Nc1cccc(-c2ncc(F)cn2)c1OC (centres unmarked)", "> 100 nM"),
    ("CNc1cc(N2CCc3c(N4CCC(CC5CC6(CCN(C(=O)c7ccc(Cl)c(N8CCC(=O)NC8=O)c7)CC6)C5)CC4)cccc32)nn2c(C(=O)N[C@@H]3C[C@@H]3F)cnc12", "1 to 10 nM"),
    ("CNc1cc(-c2ccc(C(=O)NCCCCCCCCc3ccc4c(c3)n(C)c(=O)n4C3CCC(=O)NC3=O)cc2)nn2c(C(=O)N[C@@H]3C[C@@H]3F)cnc12 (some centres unmarked)", "> 100 nM"),
    ("O=C1CCN(c2cc(C(=O)N3CCC4(CC3)CN(Cc3ccc(-c5cccc6c5CCN6c5ccc6ncc(C(=O)NC7CC7)n6n5)nc3)C4)ccc2Cl)C(=O)N1", "> 100 nM"),
]
